Task for the reader: assign each of the following compounds its reported IC50.
Test system: COV362 cells
assay.name: Cell proliferation assay (alamarBlue), chemoresistant ovarian cancer cell line COV362
Assay type: cell-based, human
cond: 48 h incubation
// units = µM; emit number, no label

Note to self: IC50 recorded for C1N2CN3CN1CP(C2)C3.Cc1ccc(C(C)C)cc1.F[P-](F)(F)(F)(F)F.O=C(C=C([O][Ru+])c1ccc(I)cc1)C(F)(F)F was 141

Note to self: IC50 recorded for C1N2CN3CN1CP(C2)C3.Cc1ccc(C(C)C)cc1.F[P-](F)(F)(F)(F)F.O=C(C=C([O][Ru+])c1ccc2c(c1)OCO2)C(F)(F)F was 152
